target: SMARCA2 (Homo sapiens, UniProt P51531); assay: HiBiT assay for protein degradation, Hela SMARCA2-HiBiT cells (A series); type: cell-based; parameters: Hela cells were genetically modified via CRISPR/Cas9 to fuse HiBiT to the carboxy terminus of SMARCA2; host or cells: HeLa (CRISPR/Cas9 HiBiT knock-in); details: read-out: SMARC A2 Hela HiBit DC50
Sequence (P51531 whole entry): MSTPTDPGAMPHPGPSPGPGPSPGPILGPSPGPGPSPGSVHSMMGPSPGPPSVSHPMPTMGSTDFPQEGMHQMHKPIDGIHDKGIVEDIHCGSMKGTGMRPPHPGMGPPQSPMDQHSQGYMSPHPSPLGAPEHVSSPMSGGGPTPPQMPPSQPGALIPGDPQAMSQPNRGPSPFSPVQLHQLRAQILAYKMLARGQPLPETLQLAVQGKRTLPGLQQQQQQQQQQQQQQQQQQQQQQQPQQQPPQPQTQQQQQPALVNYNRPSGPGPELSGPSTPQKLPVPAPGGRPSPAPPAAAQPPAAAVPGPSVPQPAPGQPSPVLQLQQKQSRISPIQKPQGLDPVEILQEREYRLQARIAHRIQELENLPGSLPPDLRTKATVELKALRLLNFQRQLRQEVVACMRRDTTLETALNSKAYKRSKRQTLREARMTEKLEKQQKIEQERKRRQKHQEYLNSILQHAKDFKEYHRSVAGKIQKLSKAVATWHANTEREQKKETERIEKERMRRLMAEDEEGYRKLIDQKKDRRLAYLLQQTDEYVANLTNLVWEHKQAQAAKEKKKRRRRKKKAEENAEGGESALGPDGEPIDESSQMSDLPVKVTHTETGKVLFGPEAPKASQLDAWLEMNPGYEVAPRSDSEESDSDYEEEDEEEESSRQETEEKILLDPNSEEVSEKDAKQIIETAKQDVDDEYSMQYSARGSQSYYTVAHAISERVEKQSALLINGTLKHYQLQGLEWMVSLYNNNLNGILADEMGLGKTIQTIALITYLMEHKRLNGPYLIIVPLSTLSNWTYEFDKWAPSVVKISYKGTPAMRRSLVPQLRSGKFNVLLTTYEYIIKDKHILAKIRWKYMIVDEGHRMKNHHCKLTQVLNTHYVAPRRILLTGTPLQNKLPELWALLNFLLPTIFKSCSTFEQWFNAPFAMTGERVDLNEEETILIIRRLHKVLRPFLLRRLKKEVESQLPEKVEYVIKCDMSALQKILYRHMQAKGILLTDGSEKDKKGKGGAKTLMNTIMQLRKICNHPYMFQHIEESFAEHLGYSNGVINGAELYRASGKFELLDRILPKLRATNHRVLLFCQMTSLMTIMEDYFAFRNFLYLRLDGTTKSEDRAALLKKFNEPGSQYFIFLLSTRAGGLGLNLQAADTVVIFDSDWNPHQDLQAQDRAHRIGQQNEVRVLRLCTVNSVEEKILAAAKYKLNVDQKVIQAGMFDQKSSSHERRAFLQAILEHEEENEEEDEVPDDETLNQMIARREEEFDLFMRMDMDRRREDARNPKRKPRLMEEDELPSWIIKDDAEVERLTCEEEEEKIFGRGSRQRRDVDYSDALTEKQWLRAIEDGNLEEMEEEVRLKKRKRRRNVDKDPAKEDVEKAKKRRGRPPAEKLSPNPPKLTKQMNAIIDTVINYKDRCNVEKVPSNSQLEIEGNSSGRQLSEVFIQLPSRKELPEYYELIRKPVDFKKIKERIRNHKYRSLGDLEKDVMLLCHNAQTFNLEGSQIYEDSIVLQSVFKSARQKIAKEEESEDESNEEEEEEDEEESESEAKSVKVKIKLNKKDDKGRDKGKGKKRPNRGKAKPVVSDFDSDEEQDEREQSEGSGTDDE
Reported Property: DC50

Inquiry: Please report the measured DC50 for Cc1ncsc1-c1ccc([C@H](C)NC(=O)[C@@H]2C[C@@H](O)CN2C(=O)[C@@H](n2cc(CCN3CCC(c4ccc5c(c4)-n4c(nc(=O)c6c(Br)cccc64)C54CCCCC4)CC3)nn2)C(C)(C)C)cc1
Reply text: < 0.1 µM

Inquiry: Give the measured DC50 for Cc1ncsc1-c1ccc([C@H](C)NC(=O)[C@@H]2C[C@@H](O)CN2C(=O)[C@@H](n2cc([C@H]3CC[C@H](CN4CCC(c5ccc6c(c5)C5(CCCCC5)c5nc(=O)c7c(Br)cccc7n5-6)CC4)CC3)nn2)C(C)(C)C)cc1
Reply text: < 0.1 µM

* * *

target: SMARCA4 (Homo sapiens); test: HiBit assay in engineered HT1080 CRISPR knock-in cell, 6 hrs (B series), SMARCA4; type: cell-based; conditions: HT-1080, HT1080 CRISPR knock-in cells, 6 hrs incubation; read-out: SMARC A4 HT1080 HiBit Dmax(%)
Sequence (P51532 whole entry): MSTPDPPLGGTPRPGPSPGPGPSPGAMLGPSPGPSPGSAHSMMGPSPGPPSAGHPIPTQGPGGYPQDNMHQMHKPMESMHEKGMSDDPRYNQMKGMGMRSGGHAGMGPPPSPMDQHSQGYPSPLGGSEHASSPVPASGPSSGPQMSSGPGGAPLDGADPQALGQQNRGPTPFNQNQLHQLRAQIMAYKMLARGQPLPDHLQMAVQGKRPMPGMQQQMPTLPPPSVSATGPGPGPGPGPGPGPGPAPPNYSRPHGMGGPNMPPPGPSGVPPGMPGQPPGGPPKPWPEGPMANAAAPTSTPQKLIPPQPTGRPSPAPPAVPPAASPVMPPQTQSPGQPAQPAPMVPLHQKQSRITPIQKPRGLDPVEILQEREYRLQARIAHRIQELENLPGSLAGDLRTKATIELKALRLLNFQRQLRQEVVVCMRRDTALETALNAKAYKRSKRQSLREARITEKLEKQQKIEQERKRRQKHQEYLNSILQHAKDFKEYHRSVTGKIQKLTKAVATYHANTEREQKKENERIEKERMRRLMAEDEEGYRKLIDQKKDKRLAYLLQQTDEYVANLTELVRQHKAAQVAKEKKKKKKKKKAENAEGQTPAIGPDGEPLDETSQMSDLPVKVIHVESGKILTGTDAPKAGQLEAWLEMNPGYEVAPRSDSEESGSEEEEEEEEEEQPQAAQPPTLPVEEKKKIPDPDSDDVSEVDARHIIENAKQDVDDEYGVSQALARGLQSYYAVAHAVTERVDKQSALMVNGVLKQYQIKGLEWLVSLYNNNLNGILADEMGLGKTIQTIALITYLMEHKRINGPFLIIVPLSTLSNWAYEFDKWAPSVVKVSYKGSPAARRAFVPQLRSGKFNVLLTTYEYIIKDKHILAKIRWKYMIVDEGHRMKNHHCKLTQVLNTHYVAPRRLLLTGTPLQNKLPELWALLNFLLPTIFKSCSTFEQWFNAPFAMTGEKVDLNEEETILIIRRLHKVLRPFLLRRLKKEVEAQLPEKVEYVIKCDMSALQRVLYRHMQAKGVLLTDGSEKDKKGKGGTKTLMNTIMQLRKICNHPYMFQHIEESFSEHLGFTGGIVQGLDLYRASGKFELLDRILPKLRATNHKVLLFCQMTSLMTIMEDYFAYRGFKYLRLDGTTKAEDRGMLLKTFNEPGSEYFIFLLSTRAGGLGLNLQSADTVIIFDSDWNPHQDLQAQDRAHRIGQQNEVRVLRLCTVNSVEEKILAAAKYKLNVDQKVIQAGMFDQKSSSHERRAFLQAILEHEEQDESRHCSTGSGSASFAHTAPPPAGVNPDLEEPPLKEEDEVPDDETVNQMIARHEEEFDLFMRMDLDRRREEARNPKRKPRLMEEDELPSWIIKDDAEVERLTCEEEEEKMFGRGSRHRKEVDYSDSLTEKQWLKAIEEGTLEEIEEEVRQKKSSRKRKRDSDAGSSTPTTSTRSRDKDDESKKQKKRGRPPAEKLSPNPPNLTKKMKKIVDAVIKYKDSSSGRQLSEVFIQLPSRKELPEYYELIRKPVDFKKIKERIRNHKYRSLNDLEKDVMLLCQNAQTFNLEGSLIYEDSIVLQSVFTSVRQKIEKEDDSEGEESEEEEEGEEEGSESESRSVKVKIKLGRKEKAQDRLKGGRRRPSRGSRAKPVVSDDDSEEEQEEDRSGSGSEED
Reported Property: Dmax

Inquiry: Dear colleague, please send me the reported Dmax for Cc1ncsc1-c1ccc([C@H](CN2CCOCC2)NC(=O)[C@@H]2C[C@@H](O)CN2C(=O)[C@@H](n2cc([C@H]3CC[C@H](S(=O)(=O)N4CCC(c5ccc6c(c5)-n5c(nc(=O)c7c(Cl)cccc75)C65CCCCC5)CC4)CC3)nn2)C(C)(C)C)cc1 when you can.
Reply text: 50 to 69%

Inquiry: Fill in reported Dmax for this entry: Cc1ncsc1-c1ccc([C@H](C)NC(=O)[C@@H]2C[C@@H](O)CN2C(=O)[C@@H](c2cc(N3CCC(CN4CCC(c5ccc6c(c5)-n5c(nc(=O)c7c(Cl)cccc75)C6(C)C)CC4)CC3)no2)C(C)C)cc1
Reply text: 70 to 90%

* * *

Consider the following compounds; for each one, report its Dmax.
target: UniProt:P51531; assay: HiBit assay in engineered HT1080 CRISPR knock-in cell, 6 hrs (B series), SMARCA2; assay type: cell-based; conditions: HT-1080, HT1080 CRISPR knock-in cells, 6 hrs incubation; read-out: SMARC A2 HT1080 HiBit Dmax (%)

Inquiry: Lab note: UniProt:P51531 assay, enter Dmax for Cc1ncsc1-c1ccc([C@H](CCCCCN2CCC(c3ccc4c(c3)C(C)(C)c3nc(=O)c5c(Br)cccc5n3-4)CC2)NC(=O)[C@@H]2C[C@@H](O)CN2C(=O)[C@@H](NC(=O)C2(F)CC2)C(C)(C)C)cc1 here
Reply text: > 90%

Inquiry: GET Dmax | system: UniProt:P51531 | item: Cc1ncsc1-c1ccc([C@H](CN2CCOCC2)NC(=O)[C@@H]2C[C@@H](O)CN2C(=O)[C@@H](n2cc([C@H]3CC[C@H](CN4CCC(c5ccc6c(c5)-n5c(nc(=O)c7c(Br)cccc75)C6(C)C)CC4)CC3)nn2)C(C)(C)C)cc1
Reply text: > 90%
